Measured Enthalpy of desolvation, ΔdesolvH calculated from equation 4, listed per entry for reference.
Assay: Desolvation of solvates by DSC and TGA
Type: physicochemical
Settings: calculated from enthalpies of solution, heat capacities and enthalpy of vapourization
Answer with a number only, understood to be in kcal/mol.

# compound, quantity-unit, data-value
measured = [
    ("C1CCOC1.CC(C)c1c(C(=O)Nc2ccccc2)c(-c2ccccc2)c(-c2ccc(F)cc2)n1CC[C@@H](O)C[C@@H](O)CC(=O)[O-].CC(C)c1c(C(=O)Nc2ccccc2)c(-c2ccccc2)c(-c2ccc(F)cc2)n1CC[C@@H](O)C[C@@H](O)CC(=O)[O-].[Ca+2] [Solvate II]", "kcal/mol", 13.66),
    ("CC(C)c1c(C(=O)Nc2ccccc2)c(-c2ccccc2)c(-c2ccc(F)cc2)n1CC[C@@H](O)C[C@@H](O)CC(=O)[O-].CC(C)c1c(C(=O)Nc2ccccc2)c(-c2ccccc2)c(-c2ccc(F)cc2)n1CC[C@@H](O)C[C@@H](O)CC(=O)[O-].CCO.[Ca+2] [Solvate III]", "kcal/mol", 8.219),
]

The record that follows has no Enthalpy of desolvation, ΔdesolvH calculated from equation 4 shown yet.
Record request: Enthalpy of desolvation, ΔdesolvH calculated from equation 4 value, item CC(C)c1c(C(=O)Nc2ccccc2)c(-c2ccccc2)c(-c2ccc(F)cc2)n1CC[C@@H](O)C[C@@H](O)CC(=O)[O-].CC(C)c1c(C(=O)Nc2ccccc2)c(-c2ccccc2)c(-c2ccc(F)cc2)n1CC[C@@H](O)C[C@@H](O)CC(=O)[O-].CO.[Ca+2] [Solvate V]
6.381
